Data origin: PubChem BioAssay (NCI)

Tested on: COLO 205 colon
Experiment: NCI-60 one-dose screen, 48 h
Conditions: 10 µM
About 83,000 compounds went through this panel and 20% of them were active in at least one assay; those are over-represented in the sample as a whole. Active and inactive are the calls of the source. The calls were made as follows: active = growth percent below 10; inactive = the rest.
// allowed return values: 1.0 for active, 0.0 for inactive

Problem: Outcome? COc1ccccc1N1CCN(CCc2c[nH]c3cc4c(cc23)OCO4)CC1
Solution: 0.0

Problem: Outcome? CCOC(=O)C1(c2ccccc2)CCN(CC(=O)c2ccc(NC(C)=O)cc2)CC1
Solution: 0.0

Problem: Outcome? C/C(=N/OC(=O)N(C)C)c1cc(Cl)ccc1Cl
Solution: 0.0

Problem: Outcome? COc1cc(C2(C#N)CCN(C)CC2)cc(OC)c1OC
Solution: 0.0

Problem: Outcome? CC(C)(C)N(Cc1ccccc1)N=O
Solution: 0.0

Problem: Outcome? CNC(=O)Oc1ccccc1
Solution: 0.0

Problem: Outcome? O=C(CCc1ccco1)NC1CCN(CC2(c3ccc(Cl)cc3)CCC2)CC1
Solution: 1.0

Problem: Outcome? Nc1cccc2c1Oc1ccccc1O2
Solution: 0.0

Problem: Outcome? Cc1ccc(N)cc1[As]=[As]c1cc(N)ccc1C (stereo unspecified)
Solution: 1.0

Problem: Outcome? CCOCC1(CCc2ccccc2)C(=O)NC(=S)NC1=O
Solution: 0.0

Problem: Outcome? C=C=[CH][Sn]([c]1ccccc1)([c]1ccccc1)[c]1ccccc1
Solution: 1.0

Problem: Outcome? CCCC(C)(C)c1ccc2c(c1)OC(C)(C)[C@@H]1CC=C(C)C[C@@H]21
Solution: 0.0

Problem: Outcome? CCC(C)[C@H]1O[C@]2(C=C[C@@H]1C)C[C@@H]1C[C@@H](C/C=C(\C)[C@@H](OC3C[C@H](OC)C(O[C@H]4C[C@H](OC)[C@@H](O)[C@H](C)O4)[C@H](C)O3)[C@@H](C)/C=C/C=C3\CO[C@@H]4[C@H](O)C(C)=C[C@@H](C(=O)O1)[C@]34O)O2 (stereo partly specified)
Solution: 1.0

Problem: Outcome? CN=C(NN)NN
Solution: 0.0

Problem: Outcome? CC(=O)Oc1ccc(Cl)cc1
Solution: 0.0

Problem: Outcome? O=C1NC(=O)C(O)(C2(O)C(=O)NC(=O)NC2=O)C(=O)N1
Solution: 0.0

Problem: Outcome? C[C@]12CCC(=O)CC1CC[C@@H]1C2CC[C@@]2(C)C1CC[C@@H]2OC(=O)CC[Se][Se]CCC(=O)O[C@H]1CCC2[C@@H]3CCC4CC(=O)CC[C@]4(C)C3CC[C@@]21C (stereo partly specified)
Solution: 0.0

Problem: Outcome? O=[N+]([O-])c1cc([N+](=O)[O-])c(Cl)c(Cl)c1Cl
Solution: 1.0

Problem: Outcome? O=C(CCF)c1ccc(O)cc1
Solution: 0.0

Problem: Outcome? CC(CC(C#N)(c1ccccc1)c1ccccc1)N1CCOCC1 (stereo unspecified)
Solution: 0.0

Problem: Outcome? O=S(=O)(Cl)c1ccccc1 (tested in a mixture with another compound)
Solution: 0.0

Problem: Outcome? CC(=O)OC1CCC2(C)C(=CCC3C4CC(CN5CC5)C(=O)C4(C)CCC32)C1 (stereo unspecified)
Solution: 0.0

Problem: Outcome? CC1=C(SCCC(=O)OCC(=O)NCCC[Te]c2ccccc2)C(=O)c2ccccc2C1=O
Solution: 0.0

Problem: Outcome? C[CH2][Sn]([CH2]C)([CH2]C)[NH]S(=O)(=O)c1ccc(C)cc1
Solution: 0.0

Problem: Outcome? ClCCN(CCCl)c1ccc(C=NCCc2c[nH]c3ccccc23)cc1
Solution: 0.0

Problem: Outcome? CCCCCN(CCCCC)CC(O)c1ccc(C)c(Cl)c1 (stereo unspecified)
Solution: 0.0
